System: biotinyl-Trp-oxazolone
ASSAY PROCEDURE: self-aminoacylation, catalytic enhancement (BWO) (fold over background); higher = more active; k-Seq, kA / k0A0; sequences stand for … in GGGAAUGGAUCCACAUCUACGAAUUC…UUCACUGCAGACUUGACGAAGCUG
Fewer inactive variants are shown than the library holds.
VALUE KIND: self-aminoacylation
Reply briefly: the number, and no unit.

Solved entries:
>>> print(df.to_string())
                           sequence_content  measured_value
0  CUUCUUCAAACAAUCGGUCUA [Fam1A.1 aminoacylation ribozyme variant]             4.8
1  AAGUUUGCUAAUAGGGGCAAG [Fam3.1 aminoacylation ribozyme variant]           0.665
2  AUUACCCUGGUCACCGAGUGG [Fam2.1 aminoacylation ribozyme variant]            3.23
3  AUUACCCUGGCCAUGGAGUGA [Fam2.1 aminoacylation ribozyme variant]             5.9
4  AUUCACCUUGAUCAUCGGGUG [Fam2.2 aminoacylation ribozyme variant]            4.07
5  CAACACUUCAAGCCAUCGGUC [Fam1B.1 aminoacylation ribozyme variant]            1.24

Task: // lookup self-aminoacylation | system=biotinyl-Trp-oxazolone | key= CUACUUCAAAUAAACGGUCUG [Fam1A.1 aminoacylation ribozyme variant]
Result: 0.692

Task: Checklist item: self-aminoacylation tested on biotinyl-Trp-oxazolone, entry AUUCACCUAGGUUAUCGAGUG [Fam2.2 aminoacylation ribozyme variant] , value?
Result: 1.89

Task: Notebook: pull reported self-aminoacylation for biotinyl-Trp-oxazolone, entry AAGUUUGCUAGUAGUCGCACG [Fam3.1 aminoacylation ribozyme variant]
Result: 2.21

* * *

Tested on: biotinyl-Phe-oxazolone
ASSAY PROCEDURE: self-aminoacylation, catalytic enhancement (BFO) (fold over background); higher = more active; k-Seq, kA / k0A0; sequences stand for … in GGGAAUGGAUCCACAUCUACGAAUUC…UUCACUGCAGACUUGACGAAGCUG
Variants at the floor of the assay were thinned out.
The following sequences are listed with their measured self-aminoacylation values.
Give only the figure.

>>> print(df.to_string())
                           sequence_content  measured_value
0  AUUAACCUCGGUCAUCGGGUG [Fam2.2 aminoacylation ribozyme variant]            28.5
1  AUCACCCUGGUCAUCGAGUGG [Fam2.1 aminoacylation ribozyme variant]            41.8
2  AUUGCCCGGGUCAUCGAGUGA [Fam2.1 aminoacylation ribozyme variant]            45.4
3  AUUCAUCUAGGUCGUCGGGUG [Fam2.2 aminoacylation ribozyme variant]            4.73
4  AUACACCAAGGUCAUCGGGUG [Fam2.2 aminoacylation ribozyme variant]            42.2
5  AUUCACCUAGGUCGACGGGUG [Fam2.2 aminoacylation ribozyme variant]            13.3
6  CCACUUCAAACACUCGGUCUG [Fam1A.1 aminoacylation ribozyme variant]            4.37
7  AAGUUUGUUAAUAAUCGCAAG [Fam3.1 aminoacylation ribozyme variant]            1.05
8  AUACACCUAGGUCAUCGCGUG [Fam2.2 aminoacylation ribozyme variant]            69.7
9  AAGUUGACUAAUAGUCGCAAG [Fam3.1 aminoacylation ribozyme variant]             1.5

Task: Lab note: need self-aminoacylation with biotinyl-Phe-oxazolone for entry AUUUACCUAGGUAAUCGGGUG [Fam2.2 aminoacylation ribozyme variant] , please look it up.
Result: 17.3

Task: Short answer please: self-aminoacylation, biotinyl-Phe-oxazolone, entry CUAGUUCAAACAAUCGGUCUC [Fam1A.1 aminoacylation ribozyme variant]
Result: 9.67

Task: Request - read-out self-aminoacylation | tested on biotinyl-Phe-oxazolone | sequence AUUCACCUCGGGCAUCGGGUG [Fam2.2 aminoacylation ribozyme variant]
Result: 34.5

Task: Fill in the recorded self-aminoacylation for this sequence, with biotinyl-Phe-oxazolone as test system: AAUACCCCGGUCAUCGAGUGA [Fam2.1 aminoacylation ribozyme variant]
Result: 27.9

Task: What measured self-aminoacylation is associated with AAGUUUGGUAAUAGUCCCAAG [Fam3.1 aminoacylation ribozyme variant] on biotinyl-Phe-oxazolone?
Result: 1.39

Task: API: value(readout=self-aminoacylation, system=biotinyl-Phe-oxazolone) for record AUUACCCUGGUCAUCGAUUGC [Fam2.1 aminoacylation ribozyme variant]
Result: 0.81

Task: Field: self-aminoacylation (biotinyl-Phe-oxazolone). Entry: CUAGUUCAAUCAAUCGGUCUG [Fam1A.1 aminoacylation ribozyme variant]
Result: 3.97

Task: Provide value of self-aminoacylation for this record tested with biotinyl-Phe-oxazolone: AUCCACCUAGGACAUCGGGUG [Fam2.2 aminoacylation ribozyme variant]
Result: 39.9

Task: Find the measured self-aminoacylation: item CUACUUCAAACACUCGGACUG [Fam1A.1 aminoacylation ribozyme variant] , target or system biotinyl-Phe-oxazolone.
Result: 0.435

Task: Item AAGUUUGCUCAAAGUCGCAAG [Fam3.1 aminoacylation ribozyme variant] with biotinyl-Phe-oxazolone - self-aminoacylation?
Result: 2.29

* * *

self-aminoacylation by entry:
Tested on: biotinyl-Leu-oxazolone
ASSAY PROCEDURE: self-aminoacylation, catalytic enhancement (BLO) (fold over background); higher = more active; k-Seq, kA / k0A0; sequences stand for … in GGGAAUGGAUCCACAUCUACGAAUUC…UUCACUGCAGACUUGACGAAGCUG
This sample holds only a part of the variants without activity.
I'd appreciate a reply containing only the number, no unit.

Illustrative cases are given below, each with its answer.
>>> df
                           sequence_content           tested_target  measured_value
0  AAGUUUGCUAAUAUUAGCAAG [Fam3.1 aminoacylation ribozyme variant]  biotinyl-Leu-oxazolone            1.08
1  AUUCAACUAGGUCAUCGGUUG [Fam2.2 aminoacylation ribozyme variant]  biotinyl-Leu-oxazolone           0.889
2  AUGUUUGCUAAUGGUCGCAAG [Fam3.1 aminoacylation ribozyme variant]  biotinyl-Leu-oxazolone            1.02
3  AGUACCCCGGUCAUCGAGUGA [Fam2.1 aminoacylation ribozyme variant]  biotinyl-Leu-oxazolone             6.8
4  AUAACCCUGGUCAUCGAGUGA [Fam2.1 aminoacylation ribozyme variant]  biotinyl-Leu-oxazolone            18.8
5  AUUACCCUGGUGAUCGAGUGU [Fam2.1 aminoacylation ribozyme variant]  biotinyl-Leu-oxazolone            2.31

Task: Requested field: self-aminoacylation. Item: AUUUACCUAGGUCACCGGGUG [Fam2.2 aminoacylation ribozyme variant]
Result: 6.09

Task: Field request: self-aminoacylation | item: CCACACUUCAAACAAGCGGUC [Fam1B.1 aminoacylation ribozyme variant]
Result: 0.728

Task: Query: self-aminoacylation; subject: AUUCAACUAGGUCAUCGGGUA [Fam2.2 aminoacylation ribozyme variant]
Result: 2.16

* * *

Test system: biotinyl-Val-oxazolone
ASSAY PROCEDURE: self-aminoacylation, catalytic enhancement (BVO) (fold over background); higher = more active; k-Seq, kA / k0A0; sequences stand for … in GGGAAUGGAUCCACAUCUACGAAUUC…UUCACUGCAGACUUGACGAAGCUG
This sample holds only a part of the variants without activity.
self-aminoacylation values by entry

Sample records with self-aminoacylation:
In [3]: df
Out[3]:
                           sequence_content           value_kind  measured_value
0  UAGUUUGCUACUAGUCGCAAG [Fam3.1 aminoacylation ribozyme variant]  self-aminoacylation             1.1
1  AAGUUUGCUGAUACUCGCAAG [Fam3.1 aminoacylation ribozyme variant]  self-aminoacylation           0.897
2  AAGUUUGUUAAUAGUCUCAAG [Fam3.1 aminoacylation ribozyme variant]  self-aminoacylation            1.15
3  CUACUGCAAACAACCGGUCUG [Fam1A.1 aminoacylation ribozyme variant]  self-aminoacylation           0.836

Task: Fill in: self-aminoacylation of CUACGUCAAGCAAUCGGUCUG [Fam1A.1 aminoacylation ribozyme variant] is ___
Result: 1.72

Task: Any idea what its self-aminoacylation is? The sequence is AUAACCCUGGUGAUCGAGUGA [Fam2.1 aminoacylation ribozyme variant]
Result: 3.03

Task: What value of self-aminoacylation has been reported for the following sequence? CCACACUUCGAGCAUUCGGUC [Fam1B.1 aminoacylation ribozyme variant]
Result: 2.2

Task: Looking for the measured self-aminoacylation of CCACACUUCAAGCACUCGAUC [Fam1B.1 aminoacylation ribozyme variant] , can you help?
Result: 0.713

* * *

System: biotinyl-Met-oxazolone
ASSAY PROCEDURE: self-aminoacylation, catalytic enhancement (BMO) (fold over background); higher = more active; k-Seq, kA / k0A0; sequences stand for … in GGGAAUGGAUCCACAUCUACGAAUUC…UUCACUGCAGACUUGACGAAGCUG
This sample holds only a part of the variants without activity.
self-aminoacylation of 2 or higher: yes. Under 2: no.

Example entries begin here.
>>> df
                           sequence_content  group_label
0  AUUCACCUAGGUCUUCGGUUG [Fam2.2 aminoacylation ribozyme variant]           no
1  CUACUUCAAACAAUCUGCCUG [Fam1A.1 aminoacylation ribozyme variant]           no
2  CCACACUUCAAGCAAUCAGUA [Fam1B.1 aminoacylation ribozyme variant]           no
3  CCACACUUCAAACAAGCGGUC [Fam1B.1 aminoacylation ribozyme variant]           no
4  AAGUUUGUUAAUAGUCUCAAG [Fam3.1 aminoacylation ribozyme variant]           no

Task: Exam item: decide whether the reported self-aminoacylation for CUUACCCCGGUCAUCGAGUGA [Fam2.1 aminoacylation ribozyme variant] is at least 2.
Result: yes

Task: Tell me whether self-aminoacylation is at least 2 here: CCGCACUUCAAGCGAUCGGUC [Fam1B.1 aminoacylation ribozyme variant]
Result: no

Task: Decide: self-aminoacylation of CCACACUUCACGCAAACGGUC [Fam1B.1 aminoacylation ribozyme variant] >= 2?
Result: no

Task: Hi team, for AUUACCCUGUCCAUCGAGUGA [Fam2.1 aminoacylation ribozyme variant] , is the recorded self-aminoacylation at or above 2?
Result: yes

Task: Threshold query (self-aminoacylation >= 2) on UUUCACCUAGGUCAUGGGGUG [Fam2.2 aminoacylation ribozyme variant]
Result: yes
